- systemTested: VEGF (R&D systems, Minneapolis, Minn.) (UniProt P15692-4 27-191, limits assumed)
- Sequence (P15692 other isoform, or with tags, fused parts or gaps limits assumed): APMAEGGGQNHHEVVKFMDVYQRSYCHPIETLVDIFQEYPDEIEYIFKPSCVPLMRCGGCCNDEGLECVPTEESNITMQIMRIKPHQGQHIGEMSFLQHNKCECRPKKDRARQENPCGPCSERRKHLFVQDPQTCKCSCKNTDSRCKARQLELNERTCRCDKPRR
- assayProcedure: BIAcore SPR, mutant/WT
Exercise: for every item that follows, state its recorded Δkon.
Report only the number, with the unit fold understood.

Asked: Need Δkon of 86 (seventh row of Table 7) (antibody, human IgG1, V domains shown, defined here by its substitutions; copies: 2 + 2) VH: EVQLVESGGGLVQPGGSLRLSCAASGYTFTFYGMNWVRQAPGKGLEWVGWINTYTGEPTYAADFKRRFTFSLDTSKSTAYLQMNSLRAEDTAVYYCAKYPHYDGGSHWYFDVWGQGTLVTVSS VL: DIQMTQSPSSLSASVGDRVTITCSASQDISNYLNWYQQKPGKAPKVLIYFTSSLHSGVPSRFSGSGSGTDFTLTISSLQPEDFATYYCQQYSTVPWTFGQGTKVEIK , thanks.
Given back: 5.4

Asked: Need Δkon of 92 (antibody, human IgG1, V domains shown) VH: EVQLVESGGGLVQPGGSLRLSCAASGYTFTNYGMNWVRQAPGKGLEWVGWINTYTGEPTYAADFKRRFTFSLDTSKSTAYLQMNSLRAEDTAVYYCAKYPPYYGSSHWYFDVWGQGTLVTVSS VL: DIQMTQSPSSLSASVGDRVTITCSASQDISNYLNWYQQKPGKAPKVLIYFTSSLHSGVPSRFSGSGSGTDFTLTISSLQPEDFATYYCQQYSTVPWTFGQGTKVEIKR , thanks.
Given back: 2
